System: T-47D breast
assay-comment: NCI tumour cell line growth inhibition, 48 h; in the data active means GI50 below about 0.43 µM; inactive means the rest
// classify into y (active), n (inactive)

Query string: Per the records of this test, what outcome belongs to COc1ccc(-c2csc(NC(=O)c3cc(O)c(O)c(O)c3)n2)cc1 ?
Result string: n

Query string: Per the records of this test, what outcome belongs to CNCCCNCCCN1C(=O)c2ccc3c4c(ccc(c24)C1=O)C(=O)N(CCCNCc1ccccc1OC)C3=O ?
Result string: n

Query string: Per the records of this test, what outcome belongs to COc1cc(OC)c(C(=O)/C=C/c2cccc(OC(C)=O)c2)cc1CC=C(C)C ?
Result string: n

Query string: Per the records of this test, what outcome belongs to Cn1c(=O)c(Oc2ccccc2)cc2cnc(NC3CCOCC3)nc21 ?
Result string: n

Query string: Per the records of this test, what outcome belongs to COc1ccc2c(c1)/C(=C/c1cc(OC)c(OC)c(OC)c1)C(=O)N2C ?
Result string: n

Query string: Per the records of this test, what outcome belongs to Oc1ccc(C#CCOc2ccccc2)cc1CNCCN(Cc1ccccn1)Cc1ccccn1 ?
Result string: n

Query string: Per the records of this test, what outcome belongs to CC(C)Nc1ncc2cc(Oc3ccc(F)cc3F)c(=O)n(C)c2n1 ?
Result string: n

Query string: Per the records of this test, what outcome belongs to COc1cc2c(cc1OCCCCOc1ccc(-c3nc4ccccc4s3)cc1)N=C[C@@H]1CCCN1C2=O ?
Result string: y

Query string: Per the records of this test, what outcome belongs to Fc1ccc2[nH]cc(SSc3c[nH]c4ccc(F)cc34)c2c1 ?
Result string: n

Query string: Per the records of this test, what outcome belongs to COc1cc(/C=C2\C(=O)Nc3cccc(Cl)c32)cc(OC)c1OC ?
Result string: n

Query string: Per the records of this test, what outcome belongs to NC1CCC(N[C@@H]2C[C@H]2c2ccccc2)CC1 (some centres not stated) ?
Result string: n

Query string: Per the records of this test, what outcome belongs to CCNCCCn1c2c(c3ccc([N+](=O)[O-])cc3c1=O)C(=O)c1cc(OC)cnc1-2 ?
Result string: y

Where do the numbers come from? From PubChem BioAssay (NCI).
